# EXPERIMENTAL_TARGET: PI3Kα (Homo sapiens)
# Sequence (P42336 whole entry): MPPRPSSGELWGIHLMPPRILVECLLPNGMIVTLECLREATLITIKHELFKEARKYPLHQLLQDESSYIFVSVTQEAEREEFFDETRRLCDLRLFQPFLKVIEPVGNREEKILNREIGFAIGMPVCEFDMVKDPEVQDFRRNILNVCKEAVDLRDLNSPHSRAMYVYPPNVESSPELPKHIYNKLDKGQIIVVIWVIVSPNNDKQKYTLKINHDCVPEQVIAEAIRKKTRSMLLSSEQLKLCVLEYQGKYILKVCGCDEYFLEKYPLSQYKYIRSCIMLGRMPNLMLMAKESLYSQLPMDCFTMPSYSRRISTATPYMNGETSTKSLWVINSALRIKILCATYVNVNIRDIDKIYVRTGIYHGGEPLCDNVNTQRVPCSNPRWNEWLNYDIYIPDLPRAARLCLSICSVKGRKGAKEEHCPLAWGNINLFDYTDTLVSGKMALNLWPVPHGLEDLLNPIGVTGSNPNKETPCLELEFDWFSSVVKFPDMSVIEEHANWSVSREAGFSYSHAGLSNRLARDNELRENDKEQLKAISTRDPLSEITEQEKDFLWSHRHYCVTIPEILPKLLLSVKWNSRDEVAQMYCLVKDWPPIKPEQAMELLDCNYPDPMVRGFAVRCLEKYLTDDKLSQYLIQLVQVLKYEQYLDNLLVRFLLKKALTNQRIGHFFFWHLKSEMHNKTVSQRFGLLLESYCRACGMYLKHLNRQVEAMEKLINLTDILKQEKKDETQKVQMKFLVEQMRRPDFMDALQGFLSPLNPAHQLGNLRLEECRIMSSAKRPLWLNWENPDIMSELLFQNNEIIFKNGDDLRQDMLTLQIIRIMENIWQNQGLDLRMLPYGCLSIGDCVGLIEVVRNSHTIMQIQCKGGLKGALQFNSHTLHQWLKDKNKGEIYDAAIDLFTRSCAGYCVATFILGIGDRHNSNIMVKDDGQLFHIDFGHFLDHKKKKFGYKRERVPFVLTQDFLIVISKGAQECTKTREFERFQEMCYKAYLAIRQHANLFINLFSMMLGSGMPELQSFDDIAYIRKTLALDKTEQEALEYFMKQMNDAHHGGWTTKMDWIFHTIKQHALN
# Sequence (P27986 2-724 partner): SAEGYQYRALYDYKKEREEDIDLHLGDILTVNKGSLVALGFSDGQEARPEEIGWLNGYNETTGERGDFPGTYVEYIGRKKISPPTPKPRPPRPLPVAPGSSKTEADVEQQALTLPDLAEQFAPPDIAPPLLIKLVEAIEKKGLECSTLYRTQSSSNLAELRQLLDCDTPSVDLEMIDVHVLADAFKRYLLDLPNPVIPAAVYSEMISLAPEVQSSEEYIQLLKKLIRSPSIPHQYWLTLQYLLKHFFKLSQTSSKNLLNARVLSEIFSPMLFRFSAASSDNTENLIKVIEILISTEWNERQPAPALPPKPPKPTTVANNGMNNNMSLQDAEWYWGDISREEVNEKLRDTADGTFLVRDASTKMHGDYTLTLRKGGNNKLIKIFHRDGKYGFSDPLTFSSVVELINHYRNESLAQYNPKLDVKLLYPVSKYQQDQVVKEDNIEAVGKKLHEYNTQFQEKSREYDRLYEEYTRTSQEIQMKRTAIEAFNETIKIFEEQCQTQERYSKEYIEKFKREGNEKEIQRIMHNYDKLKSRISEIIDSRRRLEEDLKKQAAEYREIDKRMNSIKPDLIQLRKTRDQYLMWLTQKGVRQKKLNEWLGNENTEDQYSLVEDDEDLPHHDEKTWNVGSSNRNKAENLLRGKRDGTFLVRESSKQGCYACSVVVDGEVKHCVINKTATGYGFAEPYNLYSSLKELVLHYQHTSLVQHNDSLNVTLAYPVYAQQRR
# ASSAY_METHOD_TEXT: PI3Kα enzyme assay (Transcreener ADP2 TR-FRET Red Assay)
# CONDITIONS_USED: purified recombinant full-length protein; 2 hours pre-incubation with compound; read-out: PI3Kα WT IC50
VALUE_KIND: IC50

stdin: Recorded IC50 of "Cc1cc([C@@H](C)Nc2ccc(Cl)nc2C(=O)NS(C)(=O)=O)c2nc(NCc3ccc(F)cc3C)n(C)c(=O)c2c1" , please.
stdout: ≥ 1000 nM

stdin: Data request, read-out IC50, for "Cc1cc([C@@H](C)Nc2ccc(Cl)nc2C(=O)NS(C)(=O)=O)c2nc(-c3cnc(C)s3)n(C)c(=O)c2c1"
stdout: 500 to 1000 nM

stdin: Give its IC50 value. Item: "Cc1cc([C@@H](C)Nc2ccc(Cl)nc2C(=O)NS(C)(=O)=O)c2nc(N3CC4(COC4)C3)n(C)c(=O)c2c1"
stdout: ≥ 1000 nM

====

Consider the following compounds and their measured IC50 readings.
# Test system: T47D (PI3Kα-H1047R) cell line
# ASSAY_METHOD_TEXT: HTRF phospho-AKT(S473) cell assay in T47D cells
# Type: cell-based, human
# CONDITIONS_USED: Homo sapiens; HTRF phospho-AKT(S473), T47D (PI3Kα-H1047R) cells, 2 hours compound incubation

COMPOUND	MEAS_VALUE
Cc1cc([C@@H](C)Nc2ccc(Cl)nc2C(=O)NS(C)(=O)=O)c2nc(N3CCC(c4ccnn4CC(F)(F)F)CC3)n(C)c(=O)c2c1	< 250 nM
Cc1cc([C@@H](C)Nc2ccc(Cl)nc2C(=O)NS(C)(=O)=O)c2nc(N3CCC(c4nn(C)c5ccccc45)CC3)n(C)c(=O)c2c1	250 to 500 nM
Cc1cc([C@@H](C)Nc2ccc(Cl)nc2C(=O)NS(C)(=O)=O)c2nc(N3CCC[C@H](c4cnc(C)c(C#N)c4)C3)n(C)c(=O)c2c1 (relative stereo)	250 to 500 nM
C[C@@H](Nc1ccc(Cl)nc1C(=O)NS(C)(=O)=O)c1cc(C(F)(F)F)cc2c(=O)n(C)c(N3CCC(c4nn(C)cc4F)CC3)nc12	< 250 nM
Cc1cc([C@@H](C)Nc2ccc(Cl)nc2C(=O)NS(C)(=O)=O)c2nc(-c3ccc4[nH]ncc4c3)n(C)c(=O)c2c1	250 to 500 nM
Cc1cc([C@@H](C)Nc2ccc(Cl)nc2C(=O)NS(C)(=O)=O)c2nc(N3CCC(c4ccn(C(F)(F)F)n4)CC3)n(C)c(=O)c2c1	250 to 500 nM
Cc1cc([C@@H](C)Nc2ccc(Cl)nc2C(=O)NS(C)(=O)=O)c2nc(N3C[C@@H]4[C@H](C3)[C@H]4c3cc(C)nn3C3CC3)n(C)c(=O)c2c1	250 to 500 nM
Cc1cc([C@@H](C)Nc2ccc(Cl)nc2C(=O)NS(C)(=O)=O)c2nc(-c3ccc4c(c3)C(=O)N(C)CC4)n(C)c(=O)c2c1	< 250 nM

stdin: # get_value(readout='IC50', item= "Cc1cc([C@@H](C)Nc2ccc(Cl)nc2C(=O)NS(C)(=O)=O)c2nc(N3CCN(c4ccc(F)cn4)CC3)n(C)c(=O)c2c1" )
stdout: 250 to 500 nM

stdin: Param item = "COc1cc([C@H]2[C@@H]3CN(c4nc5c([C@@H](C)Nc6ccc(Cl)nc6C(=O)NS(C)(=O)=O)cc(C)cc5c(=O)n4C)C[C@@H]32)n(C)n1" ; retrieve measured IC50.
stdout: < 250 nM

stdin: // lookup IC50 for "Cc1cc([C@@H](C)Nc2ccc(Cl)nc2C(=O)NS(C)(=O)=O)c2nc(N3CCC(c4nn(C)cc4C#N)CC3)n(C)c(=O)c2c1"
stdout: 250 to 500 nM

stdin: # query: IC50 of entry "Cc1cc([C@@H](C)Nc2ccc(Cl)nc2C(=O)NS(C)(=O)=O)c2nc(-c3ccc(OC4CCN(CC(F)F)CC4)nc3)n(C)c(=O)c2c1"
stdout: 250 to 500 nM

stdin: Recorded IC50 of "Cc1cc([C@@H](C)Nc2ccc(Cl)nc2C(=O)NS(C)(=O)=O)c2nc(N3Cc4ccc(-c5ccnc(C)c5)cc4C3)n(C)c(=O)c2c1" , please.
stdout: 250 to 500 nM

stdin: Which IC50 is listed for "Cc1cc([C@@H](C)Nc2ccc(Cl)nc2C(=O)NS(C)(=O)=O)c2nc(N3C[C@@H]4[C@H](C3)[C@H]4c3nc(C)n(C(F)F)n3)n(C)c(=O)c2c1" ?
stdout: 250 to 500 nM

stdin: Please look up its IC50: "COc1cc(C2CCN(c3nc4c([C@@H](C)Nc5ccc(Cl)nc5C(=O)NS(C)(=O)=O)cc(C)cc4c(=O)n3C)CC2)ccn1"
stdout: 250 to 500 nM

stdin: Form field: reported IC50 of "Cc1cc([C@@H](C)Nc2ccc(Cl)nc2C(=O)NS(C)(=O)=O)c2nc(N3CC[C@H](N(C)c4ncc(Cl)cn4)C3)n(C)c(=O)c2c1"
stdout: 250 to 500 nM

stdin: Using the record for "Cc1cc([C@@H](C)Nc2ccc(Cl)nc2C(=O)NS(C)(=O)=O)c2nc(N3CCC(c4c(F)cnn4C4CC4)CC3)n(C)c(=O)c2c1" , report its IC50.
stdout: < 250 nM

stdin: Query: IC50; subject: "Cc1cc([C@@H](C)Nc2ccc(Cl)nc2C(=O)NS(C)(=O)=O)c2nc(-c3ccc4c(c3)ncn4C)n(C)c(=O)c2c1"
stdout: 250 to 500 nM

stdin: So what does the record say about IC50 for "Cc1cc([C@@H](C)Nc2ccc(Cl)nc2C(=O)NS(C)(=O)=O)c2nc(N3CCC(c4cccc5c4cnn5C)CC3)n(C)c(=O)c2c1" ?
stdout: 250 to 500 nM

stdin: IC50 lookup needed for "Cc1cc([C@@H](C)Nc2ccc(Cl)nc2C(=O)NS(C)(=O)=O)c2nc(N3C[C@H]4C[C@@H]3CN4c3ccc(C#N)cn3)n(C)c(=O)c2c1" , thanks.
stdout: 250 to 500 nM

stdin: Given the entry "Cc1cc([C@@H](C)Nc2ccc(Cl)nc2C(=O)NS(C)(=O)=O)c2nc(-c3ccc4nn(C)nc4c3)n(C)c(=O)c2c1" , report its measured IC50.
stdout: < 250 nM

stdin: Query (compound): "Cc1cc([C@@H](C)Nc2ccc(Cl)nc2C(=O)NS(C)(=O)=O)c2nc(-c3ccc(-c4ccn(C)n4)cn3)n(C)c(=O)c2c1" ; field requested: IC50
stdout: 250 to 500 nM

stdin: Quick check: IC50 of "Cc1cc([C@@H](C)Nc2ccc(Cl)nc2C(=O)NS(C)(=O)=O)c2nc(N3CCC(n4cc(C#N)cn4)CC3)n(C)c(=O)c2c1" ?
stdout: < 250 nM

====

# Test system: SKBR3 (PI3Kα-Wild Type) cell line
# ASSAY_METHOD_TEXT: HTRF phospho-AKT(S473) cell assay in SKBR3 cells
# Format: cell-based, human
# CONDITIONS_USED: Homo sapiens, SK-BR-3; SKBR3 (PI3Kα-Wild Type) cells, HTRF phospho-AKT(S473), 2 hours compound incubation, PDGF-BB stimulated
VALUE_KIND: IC50

The cases that follow already have their IC50 on record.
MOLECULE	IC50
Cc1cc([C@@H](C)Nc2ccc(Cl)nc2C(=O)NS(C)(=O)=O)c2nc(N3C[C@@H]4[C@H](C3)[C@H]4c3cnc(C)nc3)n(C)c(=O)c2c1 [Compound 405]	1 to 5 µM
Cc1cc([C@@H](C)Nc2ccc(Cl)nc2C(=O)NS(C)(=O)=O)c2nc(N3CCC4(CCCCOC4)CC3)n(C)c(=O)c2c1 [Compound 328]	≥ 5 µM

Consider now this further molecule.
stdin: GET /values?readout=IC50&item= Cc1cc([C@@H](C)Nc2ccc(Cl)nc2C(=O)NS(C)(=O)=O)c2nc(-c3cccc(F)c3F)n(C)c(=O)c2c1 [Compound 82]
stdout: 1 to 5 µM

====

# EXPERIMENTAL_TARGET: PI3Kα H1047R (Homo sapiens, UniProt P42336, H1047R)
# Sequence (P42336 whole entry H1047R): as the sequence (P42336 whole entry) above, with H1047R counted along it
# Sequence (P27986 2-724 partner): as the sequence (P27986 2-724 partner) above
# ASSAY_METHOD_TEXT: PI3Kα H1047R enzyme assay (Transcreener ADP2 TR-FRET Red Assay)
# CONDITIONS_USED: purified recombinant full-length protein; 2 hours pre-incubation with compound
pIC50: −log10 of the molar value.
Catalogue of pIC50 readings, one per entry.

COMPOUND	EXPERIMENTAL_TARGET	pIC50
Cc1cc([C@@H](C)Nc2ccc(Cl)nc2C(=O)NS(C)(=O)=O)c2nc(OC3CCC3)n(C)c(=O)c2c1	PI3Kα H1047R (Homo sapiens, UniProt P42336, H1047R)	6.60 to 7.00
Cc1cc([C@@H](C)Nc2ccc(Cl)nc2C(=O)NS(C)(=O)=O)c2nc(N3CC4(COC4)C3)n(C)c(=O)c2c1	PI3Kα H1047R (Homo sapiens, UniProt P42336, H1047R)	≤ 6.00
Cc1cc([C@@H](C)Nc2ccc(Cl)nc2C(=O)NS(C)(=O)=O)c2nc(N3CCC(F)(F)C[C@@H]3C)n(C)c(=O)c2c1 (mixture of isomers) [Compound 12]	PI3Kα H1047R (Homo sapiens, UniProt P42336, H1047R)	6.30 to 6.60
Cc1cc([C@@H](C)Nc2ccc(Cl)nc2C(=O)NS(C)(=O)=O)c2nc(N3Cc4cnn(C(C)C)c4C3)n(C)c(=O)c2c1	PI3Kα H1047R (Homo sapiens, UniProt P42336, H1047R)	6.60 to 7.00

stdin: So what's the measured pIC50 for this one? "C[C@@H](Nc1ccc(Cl)[nH]c1=O)c1cc(F)cc2c(=O)n(C)c(N3Cc4ccc(F)cc4C3)nc12"
stdout: 6.60 to 7.00

stdin: Please give the measured pIC50 for this compound: "Cc1cc([C@@H](C)Nc2ccc(Cl)nc2C(=O)NS(C)(=O)=O)c2nc(N(C)CC3CC3)n(C)c(=O)c2c1"
stdout: 6.30 to 6.60

stdin: Consider the compound shown here: "Cc1cc([C@@H](C)Nc2ccc(Cl)nc2C(=O)NS(C)(=O)=O)c2nc(-c3cncc(F)c3)n(C)c(=O)c2c1" What is its recorded pIC50?
stdout: ≤ 6.00

stdin: Returns the measured pIC50 for the input compound. Input: Cc1cc([C@@H](C)Nc2cn(C)nc2C(N)=O)c2nc(N3Cc4ccc(F)cc4C3)n(C)c(=O)c2c1 (single isomer, unassigned)
stdout: ≤ 6.00

stdin: Given "Cc1cc([C@@H](C)Nc2ccc(Cl)nc2C(=O)NS(C)(=O)=O)c2nc(NCC(F)(F)F)n(C)c(=O)c2c1" , state its recorded pIC50.
stdout: 6.00 to 6.30
